These data points were gathered from patent US8216619B2.

Let's look at some compounds and their measured concentration (% of total isomers) all E.
measurement description: Stability of pure lycopene isomers in n-hexane during storage at room temperature
Type: physicochemical
measurement conditions: n-hexane, room temperature, absence of light, 12 days
Description: Pure 5-Z, 9-Z, 13-Z and all-E lycopene were isolated from isomerised tomato oleoresin (submitted to 1 hour heating), by collecting the fractions containing the corresponding peaks after HPLC separation (see below the experimental conditions). […] Lycopene isomer profiles were determined by normal phase HPLC according to the method described by Schierle et al. (Schierle, J., Bretzel, W., Bühler, I., Faccin, N., Hess, D., Steiner, K., Schuep, W. (1997). Food. Chem. 59: 459). […]
measured metric: concentration (% of total isomers) all E

compound string | measured metric | endpoint value
CC(C)=CCC\C(C)=C/C=C/C(C)=C/C=C/C(C)=C/C=C/C=C(C)/C=C/C=C(C)/C=C/C=C(\C)CCC=C(C)C | concentration (% of total isomers) all E | 5.6 % of total isomers
CC(C)=CCC/C(C)=C/C=C/C(C)=C\C=C\C(C)=C\C=C\C=C(C)\C=C\C=C(C)\C=C\C=C(/C)CCC=C(C)C | concentration (% of total isomers) all E | 7.0 % of total isomers
CC(C)=CCC/C(C)=C/C=C/C(C)=C/C=C/C(C)=C/C=C/C=C(C)/C=C/C=C(C)/C=C/C=C(\C)CCC=C(C)C | concentration (% of total isomers) all E | 67.8 % of total isomers
CC(C)=CCC/C(C)=C/C=C/C(C)=C/C=C/C(C)=C\C=C\C=C(C)\C=C\C=C(C)\C=C\C=C(/C)CCC=C(C)C | concentration (% of total isomers) all E | 65.5 % of total isomers
